Values from PubChem BioAssay (Tox21)

- Procedure summary: qHTS assay for small molecule agonists of the antioxidant response element (ARE) signaling pathway (AID 743202)
- Assay setup: HepG2 ARE-bla reporter, beta-lactamase FRET, 16 h; series mostly up to 73.3 µM
Inconclusive results are not listed. Activity calls are given as the source filed them. The call rests on the fitted dose curve; in most records, active means well fitted activation curve with a large enough effect in the signal ratio in the repeat runs (not every such curve was filed as active); inconclusive means weak or mixed curves, or effect the other way; inactive means no such curve, though single readings can be large or run the other way; the % refers to the signal ratio.
Assign a class; possible classes are active, inactive

Answered examples (5):
O=Nc1ccc(O)cc1: inactive
C=CC(=O)OCCCCCCCC(C)C: inactive
COCC(C)O (stereo unspecified): inactive
Cn1c([N+](=O)[O-])cnc1COC(N)=O: inactive
Clc1ccc(Cl)c(Cl)c1Cl: inactive

Dear colleague, could you share the recorded outcome for CCc1ccc(O)cc1 when you have a moment? inactive

Each molecule tested received a call. Report the one for Cc1cc(=O)[nH]c(C(C)C)n1 . inactive

Status in this test for NC(=O)/N=N/C(N)=O ? inactive

For CNC[C@H](O)[C@@H](O)[C@H](O)[C@H](O)CO , what call appears in the results of this test? inactive

Recorded call for OCC#CCO ? inactive

Dear all, I need the recorded test outcome for CC(C)Cc1ccccc1 , thank you. inactive

Please let me know the test result on file for O=C1N=C(O)CN1/N=C/c1ccc(-c2ccc([N+](=O)[O-])cc2)o1 . inactive

Please share the test call associated with CCCCCCCCC . inactive

I'd appreciate the recorded outcome for CN(C)c1cccc(O)c1 from this test. active

Please let me know the test result on file for Cc1cc(Cc2ccc(N)c(C)c2)ccc1N . inactive

Outcome? Cc1ccc(N)c(S(=O)(=O)O)c1 inactive

* * *

- Procedure summary: A CellTox Green Cytotoxicity Assay to monitor cytotoxicity in HEK293 cells - 16 hour (AID 1224888); further: nearly all actives have a fitted effect of over 35% in size
- Assay setup: CellTox Green fluorescence; series mostly up to 76.8 µM
Records with an inconclusive call do not appear. Active and inactive are the calls of the source. Calls follow the shape of the dose curve; as a rule, active = well fitted activation curve with a large enough effect in the repeat runs; inconclusive = weak or mixed curves; inactive = flat fitted curve, though single readings scatter.
Test readout: outcome

O=C1CCCCC1: inactive
CCCCNC(N)=O: inactive
CC(C)(C)C(=O)C1C(=O)c2ccccc2C1=O: inactive
OCC1CCCO1 (stereo not drawn): inactive

Query outcome for CCc1ccccc1O inactive

* * *

- Target system: Progesterone receptor (Homo sapiens) (UniProt P06401)
- Sequence (P06401 whole entry, looked up): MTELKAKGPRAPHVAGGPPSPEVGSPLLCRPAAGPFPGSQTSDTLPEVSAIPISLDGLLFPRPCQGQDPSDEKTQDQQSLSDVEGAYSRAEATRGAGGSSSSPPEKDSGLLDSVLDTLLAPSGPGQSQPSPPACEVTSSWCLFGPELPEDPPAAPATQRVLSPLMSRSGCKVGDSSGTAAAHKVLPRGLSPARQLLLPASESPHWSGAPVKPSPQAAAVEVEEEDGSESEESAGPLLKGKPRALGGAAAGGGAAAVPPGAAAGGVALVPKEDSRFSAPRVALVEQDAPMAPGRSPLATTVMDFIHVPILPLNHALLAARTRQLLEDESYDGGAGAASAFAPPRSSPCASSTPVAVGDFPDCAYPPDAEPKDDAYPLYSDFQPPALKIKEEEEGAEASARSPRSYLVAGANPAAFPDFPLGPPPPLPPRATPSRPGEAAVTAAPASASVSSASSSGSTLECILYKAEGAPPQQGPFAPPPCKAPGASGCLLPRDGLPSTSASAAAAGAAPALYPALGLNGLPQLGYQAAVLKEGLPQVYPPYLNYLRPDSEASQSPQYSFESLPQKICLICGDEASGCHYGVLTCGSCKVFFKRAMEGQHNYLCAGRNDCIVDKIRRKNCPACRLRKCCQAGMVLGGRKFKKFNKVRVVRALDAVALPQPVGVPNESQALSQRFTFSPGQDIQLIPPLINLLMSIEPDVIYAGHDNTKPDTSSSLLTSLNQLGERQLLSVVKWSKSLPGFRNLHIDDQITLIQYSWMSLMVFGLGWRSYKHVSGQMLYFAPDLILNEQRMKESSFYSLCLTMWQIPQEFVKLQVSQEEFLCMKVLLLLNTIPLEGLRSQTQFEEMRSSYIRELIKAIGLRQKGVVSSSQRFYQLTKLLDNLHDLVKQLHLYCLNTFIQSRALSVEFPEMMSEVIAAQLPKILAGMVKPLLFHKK
- Procedure summary: qHTS assay to identify small molecule antagonists of the progesterone receptor (PR) signaling pathway (AID 1346795)
- Assay setup: PR-UAS-bla HEK293T, beta-lactamase FRET ratio, 16 h; series mostly up to 92.4 µM
Inconclusive results are not listed. Active and inactive are the calls of the source. The call rests on the fitted dose curve; in most records, active means well fitted inhibition curve with a large enough effect in the signal ratio in the repeat runs (not every such curve was filed as active); inconclusive means weak or mixed curves; inactive means flat fitted curve, though single readings scatter; the % refers to the signal ratio.
Select the matching outcome among Y for active, N for inactive

Cc1cc(=O)[nH]c(C(C)C)n1: N
Oc1c(Cl)cc(Cl)c(Cl)c1Cl: N
CCCCC/C=C\C/C=C\CCCCCCCC(=O)OC: N
CCCCOCCOCCOC(=O)CCCCC(=O)OCCOCCOCCCC: N
CCCCCCCCCC(=O)O: N

Please let me know the test result on file for CCc1ccc(O)cc1 . N

In this assay, the call recorded for OC[C@@H](O)[C@@H](O)[C@H](O)[C@@H](O)CO was what? N

I would be grateful if you could indicate the recorded call for O=C(c1ccc(O)cc1)c1ccc(O)cc1O . Y

How was CC[Si](OC(C)=O)(OC(C)=O)OC(C)=O classified in this test? N

What is the recorded call for this compound in the test? C[C@@H]1O[C@@H](OC[C@H]2O[C@@H](Oc3c(-c4ccc(O)c(O)c4)oc4cc(O)cc(O)c4c3=O)[C@H](O)[C@@H](O)[C@@H]2O)[C@H](O)[C@H](O)[C@H]1O N
